Biological target: LAMA2
Test: pooled miR-30 sensor sort-seq; sequence = guide strand; also: reference of the scale not given here
Settings: shRNA
// label = MET if sensor-assay potency score (higher = more potent) is not less than -0.3, otherwise NOT MET

| sequence_record | class_name |
| --- | --- |
| TTGATTGCAGATTCGACACTGC | MET |
| TTAAGTAACAATACATTAGTAT | MET |
| TTTATTGTAATTCTTCTTCAGG | NOT MET |
| TAGTTTATTGTAATTCTTCTTC | NOT MET |
| TTTGAGTTTATCTATTAGCCGG | NOT MET |
| TACATCTTTAGCTGTGTCGTTG | MET |
| TTACATAATAGGCCTGTCCAGT | NOT MET |
| TTTGTGAGCAAACATCATCAAG | NOT MET |

----------
Molecular target: C1orf61
Test: pooled miR-30 sensor sort-seq; sequence = guide strand
Conditions: shRNA
Give Criterion met when the value for sensor-assay potency score (higher = more potent) is at least -0.7. Give Criterion not met when it is less.

| sequence_record | tgt | class_name |
| --- | --- | --- |
| TCGGGGACTTGAGAGGTCCTGA | C1orf61 | Criterion met |
| TATAGCCATATAGATCTTGGTT | C1orf61 | Criterion not met |
| TTCTTTTTGGTCTCCCAACTTA | C1orf61 | Criterion not met |
| TATAGATCTTGGTTAGACATGG | C1orf61 | Criterion met |
| TTCTTCTTTTTGGTCTCCCAAC | C1orf61 | Criterion not met |
| TTTGGTCTCCCAACTTAGCCAT | C1orf61 | Criterion met |
| AAGATCATGGAATTTCTCCTGA | C1orf61 | Criterion met |
| TTGAGAGGTCCTGAGTGGCAGG | C1orf61 | Criterion not met |
| TCTATCGTCCACACGGAGGAAG | C1orf61 | Criterion not met |
| TTGGTCTCCCAACTTAGCCATG | C1orf61 | Criterion not met |

----------
Molecular target: GABRP
Test: pooled miR-30 sensor sort-seq; sequence = guide strand
Settings: shRNA
Please note: Satisfied applies when sensor-assay potency score (higher = more potent) is -0.3 or greater, and Not satisfied applies otherwise.

| sequence_record | class_name |
| --- | --- |
| TAGTAATACTGACTTCTTCTAC | Satisfied |
| TTTGAATTGTGAAATAATCAAC | Not satisfied |
| ACAAACTTGAACTTGTCGCTGG | Satisfied |
| TAGTGTAATTTCCTGTCTCCTG | Not satisfied |
| TTCTCGGAAGACAAACTTGAAC | Not satisfied |
| TTGGACTCCACAATGTAAGTAT | Satisfied |
| TTACTCTCTGAAATGCTAGAGA | Not satisfied |
| ATAATCAACAATCCTGCCCATC | Not satisfied |
| TAGTCAACGTTGTCGCTGGAAA | Not satisfied |
| TTGCCTTCAAACACCAGCCGCT | Satisfied |
| AAATACAGAACATTCCTCCGAA | Satisfied |

----------
Biological target: GPRC5B
Assay: pooled miR-30 sensor sort-seq; sequence = guide strand
Details: shRNA
Entries and their measured sensor-assay potency score (higher = more potent) follow.
measure: sensor-assay potency score (higher = more potent)

| sequence_record | tgt | reported_result |
| --- | --- | --- |
| TTGAGCACGACGGCCATCTCAG | GPRC5B | -1.15 |
| TGCTGCAGCTTGACATTGCCGA | GPRC5B | -0.579 |
| TTGGGAAATCCTGCTGTTCGGA | GPRC5B | -0.702 |
| TACACGTTGCTTCTAAACGGAG | GPRC5B | -1.35 |
| TTGAACTTGCCGCACAGAGTGA | GPRC5B | -0.846 |
| AAGAGGTACATGGTCATCCAGG | GPRC5B | -1.02 |

Source: the OligoGym collection
